The reader will find reported pIC50 values listed item by item below.
target: Human immunodeficiency virus type 1 integrase (Human immunodeficiency virus 1, UniProt Q7ZJM1); assay: Inhibition of HIV1 recombinant integrase strand transfer activity using [32P]-labeled oligonucleotide a substrate after 30 mins by electrophoretic analysis
Sequence (Q7ZJM1 whole entry): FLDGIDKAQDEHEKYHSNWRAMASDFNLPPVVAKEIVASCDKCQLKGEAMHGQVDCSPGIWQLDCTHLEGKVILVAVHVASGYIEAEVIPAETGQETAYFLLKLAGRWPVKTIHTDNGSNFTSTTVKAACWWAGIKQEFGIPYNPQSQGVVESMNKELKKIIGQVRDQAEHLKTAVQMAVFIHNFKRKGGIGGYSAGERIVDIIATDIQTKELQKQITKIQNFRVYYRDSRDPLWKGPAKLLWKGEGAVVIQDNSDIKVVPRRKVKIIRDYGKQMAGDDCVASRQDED
# pIC50: negative log10 of molar concentration; output just the value

CC(C)c1c(O)c(O)c2c(c1S(=O)(=O)N(C)C)CN(Cc1ccc(F)c(Cl)c1)C2=O :: 6.72
O=C(O)CNS(=O)(=O)c1cc(O)c(O)c2c1CN(Cc1ccc(F)c(Cl)c1)C2=O :: 7.10
O=C1c2c(O)c(O)cc(S(=O)(=O)NCCN3CCOCC3)c2CN1Cc1ccc(F)c(Cl)c1 :: 6.49
CCN(CC)S(=O)(=O)c1cc(O)c(O)c2c1CN(Cc1ccc(F)c(Cl)c1)C2=O :: 7.27

Output measured pIC50 for this item: "CC(C)c1c(O)c(O)c2c(c1S(=O)(=O)N1CCOCC1)CN(Cc1ccc(F)c(Cl)c1)C2=O"
6.39

Output measured pIC50 for this item: "O=C1c2c(O)c(O)cc(S(=O)(=O)NCCN3CCNCC3)c2CN1Cc1ccc(F)c(Cl)c1"
6.51

Output measured pIC50 for this item: "CN(C)S(=O)(=O)c1c(O)c(O)c(O)c2c1CN(Cc1ccc(F)c(Cl)c1)C2=O"
6.59

Output measured pIC50 for this item: "O=C1c2c(O)c(O)cc(S(=O)(=O)NCc3ccccn3)c2CN1Cc1ccc(F)c(Cl)c1"
6.43

Output measured pIC50 for this item: "CC(C)c1cc2c(c(O)c1O)C(=O)N(Cc1ccc(F)c(Cl)c1)C2"
5.27

----------
The reader will find reported log10 CC50 values listed item by item below.
test system: HOS; assay: Cytotoxicity against human HOS cells assessed as reduction in ATP level; format: cell-based
Note: values are log10 of CC50 expressed in µM.

Cc1c(O)c(O)c2c(c1S(=O)(=O)N(C)C)CN(Cc1ccc(F)c(Cl)c1)C2=O :: 0.80
CC(C)c1c(O)c(O)c2c(c1S(=O)(=O)N(C)C)CN(Cc1ccc(F)c(Cl)c1)C2=O :: 1.08

Output measured log10 CC50 for this item: "CC(C)c1c(O)c(O)c2c(c1S(=O)(=O)N1CCOCC1)CN(Cc1ccc(F)c(Cl)c1)C2=O"
0.77

Output measured log10 CC50 for this item: "O=C1c2c(O)c(O)cc(S(=O)(=O)NCCCBr)c2CN1Cc1ccc(F)c(Cl)c1"
0.66

Output measured log10 CC50 for this item: "CCN(CC)S(=O)(=O)c1cc(O)c(O)c2c1CN(Cc1ccc(F)c(Cl)c1)C2=O"
0.92

Output measured log10 CC50 for this item: "CN(CC(=O)O)S(=O)(=O)c1cc(O)c(O)c2c1CN(Cc1ccc(F)c(Cl)c1)C2=O"
1.98

Output measured log10 CC50 for this item: "CN(C)S(=O)(=O)c1ccc(-c2c(O)c(O)c3c(c2S(=O)(=O)N(C)C)CN(Cc2ccc(F)c(Cl)c2)C3=O)cc1"
0.45

Output measured log10 CC50 for this item: "CNS(=O)(=O)c1cc(O)c(O)c2c1CN(Cc1ccc(F)c(Cl)c1)C2=O"
0.63

Output measured log10 CC50 for this item: "CN(C)S(=O)(=O)c1c(O)c(O)c(O)c2c1CN(Cc1ccc(F)c(Cl)c1)C2=O"
0.66

Output measured log10 CC50 for this item: "O=C1c2c(O)c(O)cc(S(=O)(=O)N3CCOCC3)c2CN1Cc1ccc(F)c(Cl)c1"
0.72

Output measured log10 CC50 for this item: "CN1CCN(S(=O)(=O)c2cc(O)c(O)c3c2CN(Cc2ccc(F)c(Cl)c2)C3=O)CC1"
0.79

Output measured log10 CC50 for this item: "O=C(O)CNS(=O)(=O)c1cc(O)c(O)c2c1CN(Cc1ccc(F)c(Cl)c1)C2=O"
2.03

Output measured log10 CC50 for this item: "CCCCc1c(O)c(O)c2c(c1S(=O)(=O)N(C)C)CN(Cc1ccc(F)c(Cl)c1)C2=O"
0.85

----------
test system: Human immunodeficiency virus 1; test: Antiviral activity against HIV1 expressing wild type integrase infected in HOS cells; format: functional, organism-based; conditions: Human immunodeficiency virus 1, HOS
pEC50: −log10 of the molar value.
Decide by pEC50: equal to or exceeding 7 means true, less means false.

Is it the case that "CCCCc1c(O)c(O)c2c(c1S(=O)(=O)N(C)C)CN(Cc1ccc(F)c(Cl)c1)C2=O" has pEC50 reaching or exceeding 7?
false

Is it the case that "CN1CCN(S(=O)(=O)c2cc(O)c(O)c3c2CN(Cc2ccc(F)c(Cl)c2)C3=O)CC1" has pEC50 reaching or exceeding 7?
true

----------
biological target: Human immunodeficiency virus type 1 integrase (Human immunodeficiency virus 1); experiment: Inhibition of HIV1 recombinant integrase strand transfer activity using [32P]-labeled oligonucleotide a substrate after 30 mins by electrophoretic analysis
Class (by IC50) -- bin 1 = under 200 nM, bin 2 = from 200 nM up to 2000 nM, bin 3 = 2000 nM and over

O=C1c2c(O)c(O)cc(S(=O)(=O)N3CCOCC3)c2CN1Cc1ccc(F)c(Cl)c1 :: bin 1
Cc1c(O)c(O)c2c(c1S(=O)(=O)N(C)C)CN(Cc1ccc(F)c(Cl)c1)C2=O :: bin 3
NCCN1CCN(S(=O)(=O)c2cc(O)c(O)c3c2CN(Cc2ccc(F)c(Cl)c2)C3=O)CC1 :: bin 1
CCCCc1cc2c(c(O)c1O)C(=O)N(Cc1ccc(F)c(Cl)c1)C2 :: bin 3

Band assignment needed for "O=C1c2c(cc(-c3ccccc3)c(O)c2O)CN1Cc1ccc(F)c(Cl)c1" please.
bin 2

Band assignment needed for "CN(CC(=O)O)S(=O)(=O)c1cc(O)c(O)c2c1CN(Cc1ccc(F)c(Cl)c1)C2=O" please.
bin 1

Band assignment needed for "CCCCc1c(O)c(O)c2c(c1S(=O)(=O)N(C)C)CN(Cc1ccc(F)c(Cl)c1)C2=O" please.
bin 3

----------
test: Selectivity index, ratio of CC50 for human HOS cells to EC50 for HIV1 expressing wild type integrase; assay type: toxicity, cell-based; conditions: read-out: Ratio CC50/EC50
The reader will find reported selectivity ratio values listed item by item below.
No unit in the answer, only the number.

These recorded examples may help you get a feel for the data.
CNS(=O)(=O)c1cc(O)c(O)c2c1CN(Cc1ccc(F)c(Cl)c1)C2=O :: 108
O=C(O)CNS(=O)(=O)c1cc(O)c(O)c2c1CN(Cc1ccc(F)c(Cl)c1)C2=O :: 115
O=C1c2c(O)c(O)cc(S(=O)(=O)N3CCOCC3)c2CN1Cc1ccc(F)c(Cl)c1 :: 241
CCCCc1c(O)c(O)c2c(c1S(=O)(=O)N(C)C)CN(Cc1ccc(F)c(Cl)c1)C2=O :: 2
CN(CC(=O)O)S(=O)(=O)c1cc(O)c(O)c2c1CN(Cc1ccc(F)c(Cl)c1)C2=O :: 680

Output measured selectivity ratio for this item: "O=C1c2c(ccc(O)c2O)CN1Cc1ccc(F)c(Cl)c1"
12

Output measured selectivity ratio for this item: "CCN(CC)S(=O)(=O)c1cc(O)c(O)c2c1CN(Cc1ccc(F)c(Cl)c1)C2=O"
494

Output measured selectivity ratio for this item: "Cc1c(O)c(O)c2c(c1S(=O)(=O)N(C)C)CN(Cc1ccc(F)c(Cl)c1)C2=O"
20

Output measured selectivity ratio for this item: "O=C1c2c(O)c(O)cc(S(=O)(=O)NCCCBr)c2CN1Cc1ccc(F)c(Cl)c1"
49

----------
The reader will find reported pEC50 values listed item by item below.
test system: Human immunodeficiency virus 1; test: Antiviral activity against HIV1 expressing wild type integrase infected in HOS cells; format: functional, organism-based; details: Human immunodeficiency virus 1, HOS
# pEC50: negative log10 of molar concentration; output just the value

These recorded examples may help you get a feel for the data.
CC(C)c1c(O)c(O)c2c(c1S(=O)(=O)N1CCOCC1)CN(Cc1ccc(F)c(Cl)c1)C2=O :: 5.47
O=C(O)CNS(=O)(=O)c1cc(O)c(O)c2c1CN(Cc1ccc(F)c(Cl)c1)C2=O :: 6.03
O=C1c2c(O)c(O)cc(S(=O)(=O)N3CCOCC3)c2CN1Cc1ccc(F)c(Cl)c1 :: 7.66
O=C1c2c(ccc(O)c2O)CN1Cc1ccc(F)c(Cl)c1 :: 6.35

Alright, here's another molecule for you.
Output measured pEC50 for this item: "O=C1c2c(O)c(O)cc(S(=O)(=O)NCCCBr)c2CN1Cc1ccc(F)c(Cl)c1"
7.03

----------
The reader will find reported IC50 values listed item by item below.
biological target: Human immunodeficiency virus type 1 integrase (Human immunodeficiency virus 1); assay: Inhibition of HIV1 recombinant integrase 3' processing activity using [32P]-labeled oligonucleotide a substrate after 30 mins by electrophoretic analysis

Output measured IC50 for this item: "O=C(O)CNS(=O)(=O)c1cc(O)c(O)c2c1CN(Cc1ccc(F)c(Cl)c1)C2=O"
11.7 µM
